The measured values listed here are drawn from patent US11512079B2.

This document collects MIC values reported for Cryptococcus gattii.

* Nc1ncccc1-c1cc(Cc2ccc(Cc3ccoc3)cc2)no1 | 0.01 to 0.1 µg/mL
* Nc1ncccc1-c1cc(Cc2ccc(OCc3ccccn3)cc2)no1 | 0.01 to 0.1 µg/mL

Q: Param readout = MIC; param system = Cryptococcus gattii; param query = C#CCOc1ccc(Cc2cc(-c3cccnc3N)on2)cn1 ; response: value
Result: 0.1 to 1 µg/mL

Q: Test system Cryptococcus gattii; read-out MIC; what value for Nc1ncccc1-c1cc(Cc2ccc(CNc3ncccn3)cc2)no1 ?
Result: 0.1 to 1 µg/mL

Q: // fetch Cryptococcus gattii MIC for Nc1ncccc1-c1cc(Cc2cnc(OCc3ccccc3F)c(F)c2)no1
Result: > 1 µg/mL

Q: Checklist item: MIC tested on Cryptococcus gattii, entry Nc1ncccc1-c1cc(Cc2ccc(OCc3ncccn3)cc2)no1 , value?
Result: 0.1 to 1 µg/mL

Q: Provide value of MIC for this record tested with Cryptococcus gattii: Nc1ncccc1-c1cc(Cc2cnc(Oc3ccccc3F)c(F)c2)no1
Result: > 1 µg/mL

Q: What value of MIC on Cryptococcus gattii does Nc1ncccc1-c1cc(Cc2ccc(CNc3ccc(F)c(F)c3F)cc2)no1 have?
Result: 0.1 to 1 µg/mL

---

System: Rhizomucor pusillus 46342
Assay: In vitro antifungal assay (Example IX), microdilution broth, MEC
Format: cell-based
Conditions: minimum effective concentration (shortening of hyphae), 35° C., 40-48 h, RPMI1640
Protocol: Measurement of antifungal activity: […] Candida albicans 90028, Aspergillus fumigatus MYA3626, Rhizomucor pusillus 46342 and Cryptococcus neoformans […] strains were obtained from American Type Culture Collection (ATCC). […] (A. fumigatus) and 35° C. (R. pusillus). […] The resulting spore suspension was counted and diluted into RPMI1640 medium to adjust to a final suspension of 1-2×10^4 spores/mL. […] This was validated by thorough mixing and reading at 600 nm on a microplate reader. […]
metric: minimal effective concentration

- Nc1ncccc1-c1cc(Cc2ccc(OCc3cnc4ccccc4n3)cc2)no1: 0.1 to 1 µg/mL
- Nc1ncccc1-c1cc(Cc2ccc(OCc3ccc(F)cc3)nc2)no1: 0.1 to 1 µg/mL
- Cc1cnc(COc2ccc(Cc3cc(-c4cccnc4N)on3)cc2)nc1: > 1 µg/mL

Q: // query minimal effective concentration value for entry Cc1ncsc1CCOc1ccc(Cc2cc(-c3cccnc3N)on2)cn1
Result: > 1 µg/mL

Q: Reported minimal effective concentration, molecule Nc1ncccc1-c1cc(Cc2ccc(OCCc3c(F)cccc3Cl)nc2)no1 : ____
Result: > 1 µg/mL

Q: Find the recorded minimal effective concentration belonging to COc1cc(F)cc(Cc2ccc(Cc3cc(-c4cccnc4N)on3)cc2)c1 and report it.
Result: > 1 µg/mL

Q: Bench note: what minimal effective concentration did Nc1ncccc1-c1cc(Cc2ccc(COc3cc(F)cc(F)c3F)cc2)no1 show?
Result: > 1 µg/mL

Q: minimal effective concentration lookup needed for Nc1ncccc1-c1cc(Cc2ccc(CNc3ccnc(F)c3)cc2)no1 , thanks.
Result: > 1 µg/mL

Q: Reported minimal effective concentration for Nc1ncccc1-c1cc(Cc2ccc(C(=O)c3ccccc3)cc2)no1 : what is it?
Result: 0.1 to 1 µg/mL

Q: So what's the measured minimal effective concentration for this one? Nc1ncccc1-c1cc(Cc2ccc(Sc3ccccc3)nc2)no1
Result: > 1 µg/mL

Q: Entry under review: CC(C)Cn1cc(Cc2ccc(Cc3cc(-c4cccnc4N)on3)cc2)cn1 . Reported minimal effective concentration?
Result: 0.1 to 1 µg/mL

---

Known minimal effective concentration of a selection of compounds
system: Aspergillus fumigatus MYA3626; experiment: In vitro antifungal assay (Example IX), microdilution broth, MEC; type: cell-based; settings: minimum effective concentration (shortening of hyphae), 35° C., 40-48 h, RPMI1640

Q: For the compound shown here, COc1ccc(OCc2ccc(Cc3cc(-c4cccnc4N)on3)cc2)cc1OC , give the reported minimal effective concentration.
Result: > 1 µg/mL

Q: Item Nc1ncccc1-c1cc(Cc2ccc(CNc3nc(Cl)cs3)cc2)no1 has what recorded minimal effective concentration?
Result: 0.1 to 1 µg/mL

---

test system: Cryptococcus neoformans H99
Property: MIC; scope: individual compounds

The examples below pair each entry with its known result.
• Nc1ncccc1-c1cc(Cc2ccc(Oc3cc(F)cc(F)c3)nc2)no1 = ≤ 0.01 µg/mL
• Nc1ncccc1-c1cc(Cc2cnc(OCC3CC3)c(F)c2)no1 = 0.1 to 1 µg/mL
• Nc1ncccc1-c1cc(Cc2ccc(Cc3cc(F)cc(F)c3)cc2)no1 = 0.01 to 0.1 µg/mL
• Nc1ncccc1-c1cc(Cc2ccc(CC3=CCCC3)cc2)no1 = 0.01 to 0.1 µg/mL
• Nc1ncccc1-c1cc(Cc2ccc(OCc3nccs3)cc2)no1 = 0.01 to 0.1 µg/mL
• COc1cc(F)cc(Cc2ccc(Cc3cc(-c4cccnc4N)on3)cc2)c1 = 0.1 to 1 µg/mL
• Nc1ncccc1-c1cc(Cc2ccc(N3CCC3c3ccccc3)nc2)no1 (stereo not shown) = > 1 µg/mL
• Cc1ccc(Cc2ccc(Cc3cc(-c4cccnc4N)on3)cc2)o1 = 0.01 to 0.1 µg/mL
• Nc1ncccc1-c1cc(Cc2ccc(OCc3ccnc(Br)c3)nc2)no1 = 0.01 to 0.1 µg/mL
• Nc1ncccc1-c1cc(Cc2ccc(OCc3cccc(F)c3)nc2)no1 = 0.01 to 0.1 µg/mL

Q: If you can, please state the reported MIC value of Nc1ncccc1-c1cc(Cc2ccc(OCc3ccncc3)nc2)no1 .
Result: ≤ 0.01 µg/mL

Q: Item under review: Nc1ncccc1-c1cc(Cc2ccc(COc3cccc(F)n3)cc2)no1 . Reported MIC?
Result: 0.1 to 1 µg/mL

Q: I am curious: what MIC value has been reported for C#CCOc1ccc(Cc2cc(-c3cccnc3N)on2)cn1 ?
Result: 0.1 to 1 µg/mL

---

The entries below come with measured minimal effective concentration values attached.
test system: Rhizomucor pusillus 46342; experiment: In vitro antifungal assay (Example IX), microdilution broth, MEC; assay type: cell-based; conditions: minimum effective concentration (shortening of hyphae), 35° C., 40-48 h, RPMI1640

Below, each entry is followed by its recorded minimal effective concentration result.
* Nc1ncccc1-c1cc(Cc2ccc(Cc3cnoc3)cc2)no1 [compound 14] | 0.1 to 1 µg/mL
* c1ccc(Sc2ccc(Cn3cc(-c4cccnc4)cn3)cn2)cc1 [compound 66] | > 1 µg/mL
* Nc1ncccc1-c1cc(Cc2ccc(OCc3ccco3)nc2)no1 [compound 73] | > 1 µg/mL
* Nc1ncccc1-c1cc(Cc2ccc(C(O)c3ccccc3)cc2)no1 (centres unmarked) [compound 22] | > 1 µg/mL
* Nc1ncccc1-c1cc(Cc2ccc(-c3ccncc3)cc2)no1 [compound 204] | > 1 µg/mL

Q: Field request: minimal effective concentration | item: Nc1ncccc1-c1cc(Cc2ccc(Cc3ccc4ncnn4c3)cc2)no1 [compound 13]
Result: > 1 µg/mL

Q: Form field: reported minimal effective concentration of CC(C)=CCOc1ccc(Cc2cc(-c3cccnc3N)on2)cn1 [Example 166]
Result: 0.1 to 1 µg/mL

Q: What measured minimal effective concentration goes with Nc1ncccc1-c1cc(Cc2ccc(Cc3cccc(F)c3)cc2)no1 [compound 208] ?
Result: 0.1 to 1 µg/mL

Q: Which minimal effective concentration value is on record for Cc1cc(COc2ccc(Cc3cc(-c4cccnc4N)on3)cc2)no1 [compound 26] ?
Result: > 1 µg/mL

Q: Can you share its minimal effective concentration? I mean this molecule: Nc1ncccc1-c1cc(Cc2ccc(OCCc3ccccn3)nc2)no1 [compound 39]
Result: > 1 µg/mL

---

MIC, Cryptococcus gattii: measured values

* Nc1ncccc1-c1cc(Cc2ccc(Cc3cc(F)nc(F)c3)cc2)no1 | 0.1 to 1 µg/mL

Q: Form: Entry = Nc1ncccc1-c1cc(Cc2ccc(Nc3cc(F)ccc3F)nc2)no1 | System = Cryptococcus gattii | MIC = ____
Result: 0.1 to 1 µg/mL

Q: # returns recorded MIC (system: Cryptococcus gattii) for Cc1cncc(COc2ccc(Cc3cc(-c4cccnc4N)on3)cc2)c1
Result: 0.1 to 1 µg/mL

Q: Find MIC (Cryptococcus gattii) for the entry Nc1ccc(-c2cc(Cc3ccc(Oc4cccc(F)n4)cc3)no2)c(N)n1
Result: 0.01 to 0.1 µg/mL

Q: Give MIC (Cryptococcus gattii) of the following compound: Cc1cc(COc2ccc(Cc3cc(-c4cccnc4N)on3)cc2)no1
Result: 0.1 to 1 µg/mL

Q: Could you share what MIC was measured for Nc1ncccc1-c1cc(Cc2cnc(Oc3cc(F)cc(F)c3)c(F)c2)no1 , tested on Cryptococcus gattii?
Result: 0.1 to 1 µg/mL

Q: Missing value: MIC, Cryptococcus gattii, entry Nc1ncccc1-c1cc(Cc2ccc(Oc3ccc(F)cc3F)nc2)no1 . Fill in?
Result: 0.1 to 1 µg/mL

Q: Record lookup: for Cryptococcus gattii, what MIC belongs to Nc1ncccc1-c1cc(Cc2ccc(OCC3CCC3)nc2)no1 ?
Result: ≤ 0.01 µg/mL
